Numbers sourced from patent US20250145711A1.

Let's look at some binders and their measured % Retained 60° C..
- experimental_system: T1, TRCW5 antigen (CD3δε-Fc-Avi) (biotinylated (site not stated))
- T1 construct: also called recombinant CD3
- T1 sequence (chain, as listed by the source mutant limits assumed): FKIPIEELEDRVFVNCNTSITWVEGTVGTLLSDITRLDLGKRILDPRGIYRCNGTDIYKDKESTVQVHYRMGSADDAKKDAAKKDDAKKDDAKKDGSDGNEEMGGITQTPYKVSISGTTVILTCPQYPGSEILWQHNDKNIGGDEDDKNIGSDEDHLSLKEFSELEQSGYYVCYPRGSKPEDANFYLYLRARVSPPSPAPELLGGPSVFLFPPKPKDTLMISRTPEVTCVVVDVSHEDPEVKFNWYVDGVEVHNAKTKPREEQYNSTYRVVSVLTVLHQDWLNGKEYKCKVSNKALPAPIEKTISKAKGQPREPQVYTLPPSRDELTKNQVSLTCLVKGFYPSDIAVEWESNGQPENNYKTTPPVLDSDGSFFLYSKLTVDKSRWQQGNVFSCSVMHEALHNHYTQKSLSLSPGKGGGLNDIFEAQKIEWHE
- assay_explanation: ELISA after heat
# value in %; strip the unit string

These recorded examples may help you get a feel for the data.
binder	quantity	numeric_readout
CD3B2069 (scFv) scFv: QVQLVQSGAEVKKPGSSVKVSCKASGYTFTRSTMHWVRQAPGQGLEWMGYINPSSAYTNYNQKFQGRVTLTADKSTSTAYMELSSLRSEDTAVYYCASPQVHYDYNGFPYWGQGTLVTVSSGGSEGKSSGSGSESKSTGGSEIVLTQSPATLSASPGERVTLSCSASSSVSYMNWYQQKPGTAPRRWIYDSSKLASGVPARFSGSGSGRDYTLTISSLEPEDFAVYYCQQWSRNPPTFGGGTKVEIK	% Retained 60° C.	109
CD3B2048 (scFv) scFv: QVQLVQSGAEVKKPGSSVKVSCKASGYTFTRSTMHWVKQAPGQGLEWIGYINPSSAYTNYNQKFQGRVTLTADKSTSTAYMELSSLRSEDTAVYYCASPQVHYDYNGFPYWGQGTLVTVSSGGSEGKSSGSGSESKSTGGSEIVLTQSPATLSASPGERVTLSCSASSSVSYMNWYQQKPGQAPRRLIYDSSKLASGVPARFSGSGSGRDYTLTISSLEPEDFAVYYCQQWSRNPPTFGGGTKVEIK	% Retained 60° C.	95

Let me know recorded % Retained 60° C. for CD3B2081 (scFv) scFv: QVQLVQSGAEVKKPGSSVKVSCKASGYTFTRSTMHWVRQAPGQGLEWIGYINPSSAYTNYAQKFQGRVTLTADKSTSTAYMELSSLRSEDTAVYYCASPQVHYDYNGFPYWGQGTLVTVSSGGSEGKSSGSGSESKSTGGSEIVLTQSPATLSASPGERVTLSCSASSSVSYMNWYQQKPGQAPRRWIYDSSKLASGVPARFSGSGSGRDYTLTISSLEPEDFAVYYCQQWSRNPPTFGGGTKVEIK , thanks.
114

Look up % Retained 60° C. of CD3B2063 (scFv) scFv: QVQLVQSGAEVKKPGSSVKVSCKASGYTFTRSTMHWVKQAPGQGLEWIGYINPSSAYTNYAQKFQGRVTLTADKSTSTAYMELSSLRSEDTAVYYCASPQVHYDYNGFPYWGQGTLVTVSSGGSEGKSSGSGSESKSTGGSEIVLTQSPATLSASPGERVTLSCSASSSVSYMNWYQQKPGTAPRRLIYDSSKLASGVPARFSGSGSGRDYTLTISSLEPEDFAVYYCQQWSRNPPTFGGGTKVEIK and report it.
92

Give recorded % Retained 60° C.. CD3B2052 (scFv) scFv: QVQLVQSGAEVKKPGSSVKVSCKASGYTFTRSTMHWVKQAPGQGLEWMGYINPSSAYTNYAQKFQGRVTLTADKSTSTAYMELSSLRSEDTAVYYCASPQVHYDYNGFPYWGQGTLVTVSSGGSEGKSSGSGSESKSTGGSEIVLTQSPATLSASPGERVTLSCSASSSVSYMNWYQQKPGTSPRRWIYDSSKLASGVPARFSGSGSGRDYTLTISSLEPEDFAVYYCQQWSRNPPTFGGGTKVEIK
111
